Source: ChEMBL document CHEMBL1137324

Target: Prostaglandin D2 receptor 2 (Homo sapiens)
Assay: Antagonist activity against CRTH2 receptor measured as inhibition of PGD2-induced beta-arrestin translocation in HEK293 cells by BRET assay
Format: functional, cell-based
Note to self: IC50 under 500 nM means yes, ties and anything higher get no.

Past entries and their recorded results:
INSERT INTO assay_data (sample_smiles, study_target, qualitative_label) VALUES
  ('COc1ccc(OCC(=O)O)c(C(=O)c2cnn(-c3ccccc3)c2)c1', 'Prostaglandin D2 receptor 2 (Homo sapiens)', 'no'),
  ('O=C(O)COc1ccc(Br)cc1C(=O)c1ccno1', 'Prostaglandin D2 receptor 2 (Homo sapiens)', 'no');

Q: Does the reported IC50 of O=Cc1cc(Br)ccc1OCC(=O)O stay below 500 nM?
Ans: yes

Q: Determine whether this molecule shows IC50 lower than 500 nM (ties excluded): O=C(O)COc1ccc(Br)cc1/C=N/Nc1cccc2cccnc12
Ans: no

Q: Confirm or reject: IC50 of O=C(O)COc1ccc(Br)cc1C(=O)c1cnn(-c2cccc(Br)c2)c1 lies strictly below 500 nM
Ans: yes

Q: Determine if COc1ccc(-c2cnnc(N/N=C/c3ccccc3OCC(=O)O)n2)cc1 shows IC50 strictly lower than 500 nM.
Ans: no

Q: Bench note: check whether Cc1ccc(NCC(=O)N/N=C/c2ccccc2OCC(=O)O)cc1 shows IC50 below 500 nM
Ans: no

Q: Is IC50 of O=C(O)COc1ccc([N+](=O)[O-])cc1C(=O)c1cnn(-c2ccccc2)c1 strictly below 500 nM?
Ans: yes

Q: Please check: IC50 for O=C(O)COc1ccc(Br)cc1/C=N/Nc1nncc(-c2ccccc2)n1 , strictly under 500 nM or not?
Ans: no

Q: A record lists O=C(O)COc1ccc(Br)cc1C(=O)c1ccccc1 . Is its IC50 below 500 nM?
Ans: yes

* * *

Target: Prostaglandin D2 receptor (Homo sapiens)
Sequence (Q13258 whole entry): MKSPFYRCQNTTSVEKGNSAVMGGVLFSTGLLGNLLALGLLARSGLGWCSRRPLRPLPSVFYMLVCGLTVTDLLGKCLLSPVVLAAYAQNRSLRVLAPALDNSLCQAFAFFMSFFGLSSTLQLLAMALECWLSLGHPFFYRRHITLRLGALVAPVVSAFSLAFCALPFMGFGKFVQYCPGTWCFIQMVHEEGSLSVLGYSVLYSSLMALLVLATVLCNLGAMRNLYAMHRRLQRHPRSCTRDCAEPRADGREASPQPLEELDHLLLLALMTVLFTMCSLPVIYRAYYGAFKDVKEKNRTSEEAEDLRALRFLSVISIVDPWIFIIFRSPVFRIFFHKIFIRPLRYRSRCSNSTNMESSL
Test: Inhibition of DP1
Result type: IC50

Q: Given O=C(O)COc1ccc(Br)cc1C(=O)c1cnn(-c2ccccc2)c1 , state its recorded IC50.
Ans: > 100 µM

* * *

Target: Prostaglandin D2 receptor 2 (Homo sapiens)
Sequence (Q9Y5Y4 whole entry): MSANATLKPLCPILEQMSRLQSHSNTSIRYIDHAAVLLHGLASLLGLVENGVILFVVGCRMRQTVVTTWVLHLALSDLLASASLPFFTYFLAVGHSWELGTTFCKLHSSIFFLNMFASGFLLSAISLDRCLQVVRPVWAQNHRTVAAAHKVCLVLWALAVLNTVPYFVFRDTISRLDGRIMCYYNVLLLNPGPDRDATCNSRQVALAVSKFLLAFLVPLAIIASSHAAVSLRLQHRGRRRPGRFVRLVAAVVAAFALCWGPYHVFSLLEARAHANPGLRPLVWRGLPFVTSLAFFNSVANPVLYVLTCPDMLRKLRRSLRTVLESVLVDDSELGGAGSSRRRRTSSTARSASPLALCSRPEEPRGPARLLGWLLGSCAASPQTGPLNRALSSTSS
Test: Antagonist activity against CRTH2 receptor measured as inhibition of PGD2-induced beta-arrestin translocation in HEK293 cells by BRET assay
Assay type: functional, cell-based
Result type: IC50

Here is how some compounds turned out for IC50.
INSERT INTO assay_data (sample_smiles, result_type, reported) VALUES
  ('O=C(O)COc1ccc(Br)cc1C(=O)c1cnn(-c2ccc(Br)cc2)c1', 'IC50', '13 nM'),
  ('O=C(O)COc1ccc(-c2ccc(Cl)cc2)cc1C(=O)c1cnn(-c2ccccc2)c1', 'IC50', '448 nM'),
  ('CCOC(=O)COc1ccc(Br)cc1C(=O)c1cnn(-c2ccccc2)c1', 'IC50', '3000 nM'),
  ('Cc1cc(C(=O)N/N=C/c2ccccc2OCC(=O)O)[nH]n1', 'IC50', '> 100000 nM'),
  ('O=C(O)COc1ccc(F)cc1C(=O)c1cnn(-c2ccccc2)c1', 'IC50', '1320 nM'),
  ('O=C(O)COc1ccc(Br)cc1CO', 'IC50', '6870 nM');

Dear colleague, could you please provide IC50 for the compounds listed below?
1. O=C(O)COc1ccc(Br)cc1C(=O)c1cnn(-c2ccccc2)c1
2. CC(=O)c1cc(Br)ccc1OCC(=O)O
3. COc1ccc(-n2cc(C(=O)c3cc(Br)ccc3OCC(=O)O)cn2)cc1

Ans:
["24 nM", "4520 nM", "53 nM"]

* * *

Target: Prostaglandin D2 receptor 2 (Homo sapiens)
Assay: Displacement of [3H]PGD2 from human CRTH2 receptor expressed in HEK293 cells
Assay type: cell-based
pIC50: −log10 of the molar value.
Threshold check on pIC50: at or above 7 gives 1.0, strictly below gives 0.0.

Solved cases (8 shown):
INSERT INTO measurements (sample_smiles, qualitative_label) VALUES
  ('O=C(O)COc1ccc(Br)cc1C(=O)c1cnn(-c2ccc(Br)cc2)c1', 1.0),
  ('O=C(O)COc1ccc(Br)cc1C(=O)c1cnn(-c2ccccc2Br)c1', 1.0),
  ('Cc1ccc(NCC(=O)N/N=C/c2ccccc2OCC(=O)O)cc1', 0.0),
  ('O=C(O)COc1ccc(-c2ccccc2)cc1C(=O)c1cnn(-c2ccccc2)c1', 1.0),
  ('O=C(O)COc1ccc(Br)cc1/C=N/Nc1ccccn1', 0.0),
  ('O=C(O)COc1ccccc1/C=N/NC(=O)COc1ccc(Cl)cc1Cl', 0.0),
  ('O=C(O)COc1ccc(Cl)cc1C(=O)c1cnn(-c2ccccc2)c1', 1.0),
  ('O=C(O)COc1ccc(Br)cc1C(=O)c1cnn(-c2ccccc2)c1', 1.0);

Q: Does the reported pIC50 for O=C(O)COc1ccc(Br)cc1C(=O)c1cnn(-c2ccc(Cl)cc2)c1 fall at or above the 7 mark?
Ans: 1.0

Q: Does the reported pIC50 for Cc1cc(C(=O)N/N=C/c2ccccc2OCC(=O)O)[nH]n1 fall at or above the 7 mark?
Ans: 0.0

Q: Has O=C(O)COc1ccc(Br)cc1CO a recorded pIC50 greater than or equal to 7?
Ans: 0.0

Q: Record O=C(O)COc1ccc(Br)cc1C(=O)c1ccno1 ; criterion: pIC50 no lower than 7. Met?
Ans: 0.0

Q: State whether the measured pIC50 reaches 7, counting equality as reaching it, for COc1ccc(-c2cnnc(N/N=C/c3ccccc3OCC(=O)O)n2)cc1
Ans: 0.0

Q: Given CC(=O)c1cc(Br)ccc1OCC(=O)O , state whether its pIC50 is at least 7.
Ans: 0.0

Q: Form field: pIC50 at least 7? Entry: O=Cc1ccccc1OCC(=O)O
Ans: 0.0

Q: # check: pIC50 of COc1ccc(-n2cc(C(=O)c3cc(Br)ccc3OCC(=O)O)cn2)cc1 is greater than or equal to 7
Ans: 1.0

* * *

Target: Prostaglandin D2 receptor 2 (Homo sapiens, UniProt Q9Y5Y4)
Assay: Displacement of [3H]PGD2 from human CRTH2 receptor expressed in HEK293 cells
Format: cell-based
What IC50 was measured for each of the following?
One number for each entry, in nM.

INSERT INTO measurements (sample_smiles, study_target, result_type, reported) VALUES
  ('O=C(O)COc1ccc(Br)cc1C(=O)c1ccccc1', 'Prostaglandin D2 receptor 2 (Homo sapiens, UniProt Q9Y5Y4)', 'IC50', 53),
  ('CC(C)(C)c1cc(Br)ccc1OCC(=O)O', 'Prostaglandin D2 receptor 2 (Homo sapiens, UniProt Q9Y5Y4)', 'IC50', 61),
  ('O=C(O)COc1ccccc1C(=O)c1cnn(-c2ccccc2)c1', 'Prostaglandin D2 receptor 2 (Homo sapiens, UniProt Q9Y5Y4)', 'IC50', 510),
  ('O=C(O)COc1ccc(Br)cc1C(=O)c1cnn(-c2cccc(Br)c2)c1', 'Prostaglandin D2 receptor 2 (Homo sapiens, UniProt Q9Y5Y4)', 'IC50', 3.4),
  ('CCOC(=O)COc1ccc(Br)cc1C(=O)c1cnn(-c2ccccc2)c1', 'Prostaglandin D2 receptor 2 (Homo sapiens, UniProt Q9Y5Y4)', 'IC50', 165);

Here are 3 compounds. What values of IC50 were reported for them?
1. O=C(O)COc1ccc(-c2cc(F)cc(F)c2)cc1C(=O)c1cnn(-c2ccccc2)c1
2. O=C(O)COc1ccc([N+](=O)[O-])cc1C(=O)c1cnn(-c2ccccc2)c1
3. O=C(O)COc1ccc(Br)cc1/C=N/Nc1cccc2cccnc12

Ans:
13
47
54

For every record below, what is its IC50?
1. Cc1ccc(OCC(=O)O)c(C(=O)c2cnn(-c3ccccc3)c2)c1
2. O=C(O)COc1ccccc1/C=N/NC(=O)Cn1cnc2ccccc21
3. O=C(O)COc1ccc(-c2ccc(Cl)cc2)cc1C(=O)c1cnn(-c2ccccc2)c1

Ans:
48
12800
37
